# measurement target: GLP-1R (Homo sapiens, UniProt P43220)
# Sequence (P43220 24-463): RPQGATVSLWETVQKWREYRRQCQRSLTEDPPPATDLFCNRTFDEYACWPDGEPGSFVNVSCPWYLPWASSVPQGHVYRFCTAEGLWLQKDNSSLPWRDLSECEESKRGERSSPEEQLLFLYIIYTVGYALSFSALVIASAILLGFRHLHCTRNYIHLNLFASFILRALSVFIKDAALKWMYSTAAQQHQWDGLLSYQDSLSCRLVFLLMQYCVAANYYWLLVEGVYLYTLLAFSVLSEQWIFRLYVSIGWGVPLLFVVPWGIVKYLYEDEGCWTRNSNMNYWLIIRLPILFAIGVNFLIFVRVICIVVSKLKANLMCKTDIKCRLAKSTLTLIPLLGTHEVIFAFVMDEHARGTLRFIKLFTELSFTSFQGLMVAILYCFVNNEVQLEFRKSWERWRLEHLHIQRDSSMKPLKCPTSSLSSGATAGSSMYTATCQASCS
# experiment notes: GLP-1R activation cAMP assay (Assay 1 or Assay 2)
# condition: cAMP increase in CHO cells stably expressing GLP-1R; compounds run on one of the two cAMP assays
result type: EC50 (nM)

Reference set, count: 3
sample smiles: O=C(O)c1ccc2nc(Cc3cc(F)c(-c4cccc(OCc5nnc(OCC(F)F)s5)n4)cc3F)n(C[C@@H]3CCO3)c2c1
measurement target: GLP-1R (Homo sapiens, UniProt P43220)
meas value: 0.52
//
sample smiles: O=C(O)c1ccc2nc(Cc3cc(F)c(-c4cccc(OCc5nnc(OC6CCC6)s5)n4)cc3F)n(C[C@@H]3CCO3)c2c1
measurement target: GLP-1R (Homo sapiens, UniProt P43220)
meas value: 0.055
//
sample smiles: O=C(O)c1ccc2nc(Cc3cc(F)c(-c4cccc(OCc5cnc(-c6cnn(C7CC7)c6)cc5F)n4)cc3F)n(C[C@@H]3CCO3)c2c1
measurement target: GLP-1R (Homo sapiens, UniProt P43220)
meas value: 0.08

P = Cn1ncc2cc(COc3cccc(-c4cc(F)c(Cc5nc6ccc(C(=O)O)cc6n5C[C@@H]5CCO5)cc4F)n3)sc21
Q = O=C(O)c1ccc2nc(Cc3cc(F)c(-c4cccc(OCc5ccc(-c6cnn(C7COC7)c6)cc5F)n4)cc3F)n(C[C@@H]3CCO3)c2c1
(Q) Would you kindly point out which of P and Q has the smaller EC50 figure? Please reply using the label of the selected record.
(A) Q
(Q: 0.1 nM, P: 0.33 nM)

I = CC1(C#Cc2ccc(COc3cccc(-c4cc(F)c(Cc5nc6ccc(C(=O)O)cc6n5C[C@@H]5CCO5)cc4F)n3)c(F)c2)COC1
II = O=C(O)c1ccc2nc(Cc3cc(F)c(-c4cccc(OCc5ccn(-c6ccc(F)cc6)n5)n4)cc3F)n(C[C@@H]3CCO3)c2c1
(Q) Looking only at measured EC50, which entry is lower, I or II ? Mark your answer with the label of the selected entry.
(A) I
(I: 0.3 nM, II: 1.98 nM)

P = O=C(O)c1ccc2nc(Cc3cc(F)c(-c4cccc(OCc5ccc(-n6cc(C7CC7)nn6)nc5)n4)cc3F)n(C[C@@H]3CCO3)c2c1
Q = COCCn1c(Cc2cc(F)c(-c3cccc(OCc4ccc(-c5cnn(C6CCOCC6)c5)cc4F)n3)cc2F)nc2ccc(C(=O)O)cc21
(Q) Recorded EC50 values differ for P and Q ; which one is higher? Indicate your choice by writing its label.
(A) Q

P = O=C(O)c1ccc2nc(Cc3cc(F)c(-c4cccc(OCc5nc6c(s5)CCC6)n4)cc3F)n(C[C@@H]3CCO3)c2c1
Q = Cn1nc(COc2cccc(-c3cc(F)c(Cc4nc5ccc(C(=O)O)cc5n4C[C@@H]4CCO4)cc3F)n2)cc1C1CC1
R = CCOc1nc(C)c(COc2cccc(-c3cc(F)c(Cc4nc5ccc(C(=O)O)cc5n4C[C@@H]4CCO4)cc3F)n2)s1
S = CC1(C)COC[C@H]1n1c(Cc2ccc(-c3cccc(OCc4ccc(C#N)cc4F)n3)cc2F)nc2c(F)cc(C(=O)O)cc21
T = Cc1nc(COc2cccc(-c3cc(F)c(Cc4nc5ccc(C(=O)O)cc5n4C[C@@H]4CCO4)cc3F)n2)no1
(Q) // ascending sort on recorded EC50 Hello, could you send the labels back in the order asked? Thank you.
(A) S, P, R, Q, T
